Let's look at some compounds and their measured IC50.
# study_target: SOS1 nucleotide exchange of KRAS (catalytic domain of SOS1, residues 564-1049; wild-type KRAS) (Homo sapiens, UniProt Q07889)
# Construct: tagless catalytic domain of SOS1 (residues 564-1049)
# Sequence (Q07889 564-1049): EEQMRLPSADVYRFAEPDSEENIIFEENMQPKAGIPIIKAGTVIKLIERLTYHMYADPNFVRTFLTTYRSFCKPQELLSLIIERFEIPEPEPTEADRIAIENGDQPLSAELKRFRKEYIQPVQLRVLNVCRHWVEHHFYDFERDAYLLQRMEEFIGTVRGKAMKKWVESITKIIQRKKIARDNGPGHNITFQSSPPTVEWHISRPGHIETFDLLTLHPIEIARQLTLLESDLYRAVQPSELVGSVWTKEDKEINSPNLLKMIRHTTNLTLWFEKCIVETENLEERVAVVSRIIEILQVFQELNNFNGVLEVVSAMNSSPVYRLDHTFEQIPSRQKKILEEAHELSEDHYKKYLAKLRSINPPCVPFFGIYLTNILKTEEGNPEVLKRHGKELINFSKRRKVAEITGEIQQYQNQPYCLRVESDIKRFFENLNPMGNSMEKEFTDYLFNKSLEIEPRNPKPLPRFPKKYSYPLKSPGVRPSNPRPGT
# protocol_notes: Mode of Action Assay: Inhibition of SOS1 Nucleotide Exchange Activity (TR-FRET)
# condition_details: TR-FRET signal

// worked examples, IC50 included
- smiles_code: "C[C@@H](Nc1nccc2sc(C3=CCNCC3)cc12)c1cc(N)cc(C(F)(F)F)c1"
  IC50: "> 1 µM"
- smiles_code: "C[C@@H](Nc1ncnc2sc(C(=O)N3CCN(C4COC4)CC3)cc12)c1cccc(C(F)F)c1F"
  IC50: "< 1 µM"
- smiles_code: "Cc1nc(N[C@H](C)c2cc(N)cc(C(F)(F)F)c2)c2cc(-c3ccnc(N4CCOCC4)c3)cn2n1"
  IC50: "> 1 µM"
- smiles_code: "C[C@@H](Nc1nc(Cl)nn2cc(C(=O)N3CCN(C)CC3)cc12)c1cc(N)cc(C(F)(F)F)c1"
  IC50: "< 1 µM"
- smiles_code: "Cc1cn2nc(C(=O)N3CCNCC(F)(F)C3)cc2c(N[C@H](C)c2cc(N)cc(C(F)(F)F)c2)n1"
  IC50: "> 1 µM"
- smiles_code: "C[C@@H](Nc1nc(Cl)nn2cc(C(=O)N3CC4(COC4)C3)cc12)c1cccc(C(F)F)c1F"
  IC50: "< 1 µM"

Entry `C[C@@H](Nc1nc(Cl)nn2cc(C(=O)N3CCN(C)CC3)cc12)c1cccc(C(F)F)c1F` : reported IC50 = ?
< 1 µM

Same read-out for `C[C@@H](Nc1cccc2nc(C3=CCNCC3)nn12)c1cc(N)cc(C(F)(F)F)c1` ?
> 1 µM

* * *

# study_target: UniProtKB Q07889
# Sequence (Q07889 564-1049 limits assumed): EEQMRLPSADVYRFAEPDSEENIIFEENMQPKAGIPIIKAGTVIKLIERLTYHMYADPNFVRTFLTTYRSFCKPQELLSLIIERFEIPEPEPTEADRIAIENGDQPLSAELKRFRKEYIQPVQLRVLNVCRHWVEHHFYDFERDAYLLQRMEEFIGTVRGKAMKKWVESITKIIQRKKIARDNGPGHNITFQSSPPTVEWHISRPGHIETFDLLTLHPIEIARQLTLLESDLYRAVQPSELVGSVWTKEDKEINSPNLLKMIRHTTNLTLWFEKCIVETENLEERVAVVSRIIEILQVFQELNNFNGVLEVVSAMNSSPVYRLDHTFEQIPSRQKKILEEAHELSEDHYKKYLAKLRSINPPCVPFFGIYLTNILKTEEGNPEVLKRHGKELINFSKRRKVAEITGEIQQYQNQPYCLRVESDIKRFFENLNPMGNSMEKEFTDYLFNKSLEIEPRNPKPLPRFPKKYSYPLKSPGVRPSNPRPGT
measured_property: IC50

The cases that follow already have their IC50 on record.
- smiles_code: "C[C@@H](Nc1ncnn2cc(C3CCNCC3)cc12)c1cc(N)cc(C(F)(F)F)c1"
  result: "< 1 µM"
- smiles_code: "C[C@@H](Nc1ncnn2cc(C(=O)N3CCOCC3)cc12)c1cc(N)cc(C(F)(F)F)c1"
  result: "> 5 µM"
- smiles_code: "CC(=O)N1CCN(c2cc3c(N[C@H](C)c4cccc(C(F)(F)F)c4)ncnn3c2)CC1"
  result: "< 1 µM"
- smiles_code: "Cc1nc(N[C@H](C)c2cccc(C(F)(F)F)c2)c2sc([C@]3(O)CC[C@@H](O)CC3)cc2n1"
  result: "> 5 µM"
- smiles_code: "COc1nc(N[C@H](C)c2cccc(C(F)(F)F)c2)c2cc(C3=CCNCC3)cn2n1"
  result: "1 to 5 µM"
- smiles_code: "Cc1cn2nc(C(=O)N3CCOCC3)cc2c(N[C@H](C)c2cccc(C(F)(F)F)c2)n1"
  result: "> 5 µM"
- smiles_code: "C[C@@H](Nc1nccn2cc(C(=O)N3CCN(C)CC3)nc12)c1cc(N)cc(C(F)(F)F)c1"
  result: "1 to 5 µM"

Next compound, IC50 to be filled in.
IC50 lookup needed for `CC(=O)N1CC=C(c2cc3c(N[C@H](C)c4cc(N)cc(C(F)(F)F)c4)ncnn3c2)CC1` , thanks.
1 to 5 µM
